ASSAY_PROTOCOL: Antiproliferative activity against human L02 cells assessed as cell growth inhibition incubated for 72 hrs by MTT assay
Assay type: toxicity, cell-based
PROPERTY_NAME: IC50 at 72 h

Completed entries (count: 2):
C[C@@H]1CC[C@H]2[C@@H](C)C(OC(=O)CCc3ccc(N(CCCl)CCCl)cc3)O[C@@H]3O[C@@]4(C)CC[C@@H]1[C@]32OO4 (stereo partly drawn) : > 40 µM
C[C@@H]1CC[C@@H]2[C@]34OO[C@](C)(CC[C@@H]13)O[C@H]4O[C@]2(C)COC(=O)c1ccc(N(CCCl)CCCl)cc1 : > 40 µM

Query: Consider the compound shown here: C[C@@H]1CC[C@H]2[C@@H](C)C(OC(=O)Cc3ccc(N(CCCl)CCCl)cc3)O[C@@H]3O[C@@]4(C)CC[C@@H]1[C@]32OO4 (stereo partly drawn) What is its recorded IC50 at 72 h?
Reply: 15.9 µM

---

Tested on: A549
ASSAY_PROTOCOL: Antiproliferative activity against human A549 cells assessed as cell growth inhibition incubated for 72 hrs by MTT assay
Format: functional, cell-based
PARTICULARS: A549, 72 h
PROPERTY_NAME: IC50 (µM)
One number for each entry, in µM.

Completed entries (count: 8):
Cc1cc(C(=O)OC2O[C@@H]3O[C@@]4(C)CC[C@H]5[C@H](C)CC[C@@H]([C@H]2C)[C@@]35OO4)ccc1N(CCCl)CCCl (stereo partly drawn) : 7.02
C[C@@H]1CC[C@H]2[C@@H](C)C(OC(=O)Cc3ccc(N(CCCl)CCCl)cc3)O[C@@H]3O[C@@]4(C)CC[C@@H]1[C@]32OO4 (stereo partly drawn) : 12.7
C[C@@H]1CC[C@H]2[C@@H](C)C(OC(=O)c3cccc(N(CCCl)CCCl)c3)O[C@@H]3O[C@@]4(C)CC[C@@H]1[C@]32OO4 (stereo partly drawn) : 3.24
Cc1cc(C(=O)OC[C@@]2(C)O[C@@H]3O[C@@]4(C)CC[C@H]5[C@H](C)CC[C@@H]2[C@@]35OO4)ccc1N(CCCl)CCCl : 7.03
C[C@@H]1CC[C@H]2[C@@H](C)C(OC(=O)c3ccc(N(CCCl)CCCl)cc3)O[C@@H]3O[C@@]4(C)CC[C@@H]1[C@]32OO4 (stereo partly drawn) : 2.87
C[C@@H]1CC[C@H]2[C@@H](C)C(OC(=O)CCCc3ccc(N(CCCl)CCCl)cc3)O[C@@H]3O[C@@]4(C)CC[C@@H]1[C@]32OO4 (stereo partly drawn) : 14.9
C[C@@H]1CC[C@@H]2[C@]34OO[C@](C)(CC[C@@H]13)O[C@H]4O[C@]2(C)COC(=O)c1ccc(N(CCCl)CCCl)cc1 : 5.24
C[C@@H]1CC[C@@H]2[C@]34OO[C@](C)(CC[C@@H]13)O[C@H]4O[C@]2(C)COC(=O)c1ccccc1N(CCCl)CCCl : 5.79

Give IC50 for each listed item.
1. C[C@@H]1CC[C@H]2[C@@H](C)C(OC(=O)c3ccc(N(CCCl)CCCl)c(F)c3)O[C@@H]3O[C@@]4(C)CC[C@@H]1[C@]32OO4 (stereo partly drawn)
2. C[C@@H]1CC[C@H]2[C@@H](C)C(OC(=O)c3ccccc3N(CCCl)CCCl)O[C@@H]3O[C@@]4(C)CC[C@@H]1[C@]32OO4 (stereo partly drawn)

Reply:
[8.59, 8.22]

Entry source: ChEMBL document CHEMBL5247590
